experiment: soluble on expression in E. coli; label from the status in PepcDB or PDB records
Experimental Endpoint: soluble on expression in E. coli

>>> meas_value("MGSDKIHHHHHHMEKIIEINDSIIQISDLNDRIYIMKLGKDVGELIKHVDSVCNEKKLSKVFAKVSGNKKELFEKNGYICEGKLENYYSNDDAYFMSKFFEESRKISKFSKEAEDVLNYVKTVGVNPHTKIDEKFHLKIANETDAEKLSKHYSKVFKTYPFPIDDPNYILKTMQTNVKYFIIEDNGKIVAASSCEMDIKNKCVEMTDFAVLEEYQKLGLSKYLLYIMEKIMKDNGYRVFYTIARSISYGMNITFKKMGYMYSGTAVNNTNICGNFEDMNFWYKLSE")
"not soluble"
>>> meas_value("MGHHHHHHSHMHGECVKEEKDFLKKEIVDDTKVKEEPPINHPVGCKRKLAMSRCETCGTEEAKYRCPRCMRYSCSLPCVKKHKAELTCNGVRDKTAYISIQQFTEMNLLSDYRFLEDVARTADHISRDAFLKRPISNKYMYFMKNRARRQGINLKLLPNGFTKRKENSTFFDKKKQQFCWHVKLQFPQSQAEYIEKRVPDDKTINEILKPYIDPEKSDPVIRQRLKAYIRSQTGVQILMKIEYMQQNLVRYYELDPYKSLLDNLRNKVIIEYPTLHVVLKGSNNDMKVLHQVKSESTKNVGNEN")
"not soluble"
>>> meas_value("SLGAGQPLGGYAEDLEGRQADLPKYSRANVRIVFAAVFPESNVYQGGEGYPTPSSSRLLLLDQVKTYYALSSIHGVEIIESWRSAQEVLEAPRWRLGLLLHLEGADALADILDLELLHRLGFRSLGLTWNHDNRWAASCKTRRDYGLTQSGEDLVKKAAELGVIIDLAHASDKTVADAASASPKPVIVSHANFRWKVDSPRNVGEEAVEAVVSKGGVIGYSLISTLITRGRHPTLHDVASQMAEFVEVYGHRHLAIGTDYHGLLDIRPPTGLESIDRLPRLLEALADAGLSDRQIEAIAYGNIARVIREVLPES")
"not soluble"
